The values you see were collected from ChEMBL document CHEMBL4834404.

Below, each of the molecules is paired with its reported Papp value.
experiment: Permeability of compound; assay type: ADME; conditions: not told; read-out: permeability
Report the value in ×10⁻⁶ cm/s with no unit label.

                                   molecule  endpoint  unit_of_measure  number
0  CCNC(=O)c1ccc(OCc2ccncc2)c(-c2cn(C)nn2)c1      Papp       ×10⁻⁶ cm/s      30
1      CCNC(=O)c1cc(Cc2ccccc2)nc(C(=O)NC)c1      Papp       ×10⁻⁶ cm/s      39
2  CCNC(=O)c1ccc(O[C@@H](C)c2ccccc2)c(-c2cn(C)nn2)c1      Papp       ×10⁻⁶ cm/s      42
3  CCNC(=O)c1ccc(OCC2CCOCC2)c(-c2cn(C)nn2)c1      Papp       ×10⁻⁶ cm/s      11

Q: Could you tell me which Papp is on file for CCNC(=O)c1ccc(OCc2cccc(OC)c2)c(-c2cn(C)nn2)c1 ?
A: 42

Q: Could you tell me which Papp is on file for CCNC(=O)c1cc(Cc2cccc3[nH]ccc23)nc(-c2cn(C)nn2)c1 ?
A: 30

Q: Could you tell me which Papp is on file for Cn1cc(-c2cc(C(=O)NCC[C@@H]3CNCCO3)cc(Cc3ccccc3)n2)nn1 ?
A: 1.8

Q: Could you tell me which Papp is on file for C[C@H](Oc1ccc(C(N)=O)cc1-c1cn(C)nn1)c1ccccn1 ?
A: 4.7

Q: Could you tell me which Papp is on file for CCNC(=O)c1cc(Cc2ccccc2)nc(-c2cn(C)nn2)c1 ?
A: 32.5

Q: Could you tell me which Papp is on file for CNC(=O)c1cc(C(=O)NC2CC2)cn(Cc2ccccc2)c1=O [GSK620] ?
A: 20

====

Below, each of the molecules is paired with its reported pIC50 value.
biological target: Bromodomain-containing protein 4 (Homo sapiens, UniProt O60885, Y390A); test: Inhibition of 6His-Thr-BRD4 (1 to 477 residues) BD2 domain Y390A mutant (unknown origin) incubated for 30 mins by TR-FRET assay
Please note pIC50 is a logarithmic value: minus log10 of concentration in mol/L. Answer with that number alone.

>>> df
                                        mol                                 tested_on  number
0  Cn1cc(-c2cc(C(=O)NC3CC3)cc(Cc3ccccc3)n2)nn1  Bromodomain-containing protein 4 (Homo sapiens, UniProt O60885, Y390A)    6.90
1  Cn1cc(-c2cc(C(=O)NC3CCOCC3)cc(Cc3ccccc3)n2)nn1  Bromodomain-containing protein 4 (Homo sapiens, UniProt O60885, Y390A)    6.90
2  CCNC(=O)c1ccc(OCc2ccccc2)c(-c2cn(C)nn2)c1  Bromodomain-containing protein 4 (Homo sapiens, UniProt O60885, Y390A)    6.90
3  CCNC(=O)c1ccc(O[C@@H](C)c2ccccn2)c(-c2cn(C)nn2)c1  Bromodomain-containing protein 4 (Homo sapiens, UniProt O60885, Y390A)    7.10
4  CCNC(=O)c1cc(Cc2ccccc2)nc(-c2cn(C)nn2)c1  Bromodomain-containing protein 4 (Homo sapiens, UniProt O60885, Y390A)    7.00
5  CCNC(=O)c1ccc(OCc2ccccc2OC)c(-c2cn(C)nn2)c1  Bromodomain-containing protein 4 (Homo sapiens, UniProt O60885, Y390A)    6.90
6  C[C@H](Oc1ccc(C(=O)NCC[C@H]2CNCCO2)cc1-c1cn(C)nn1)c1ccccn1  Bromodomain-containing protein 4 (Homo sapiens, UniProt O60885, Y390A)    7.20
7  C[C@H](Oc1ccc(C(=O)NC2CCOCC2)cc1-c1cn(C)nn1)c1ccccn1  Bromodomain-containing protein 4 (Homo sapiens, UniProt O60885, Y390A)    6.90
8  CNC(=O)c1ccc(O[C@@H](C)c2ccccn2)c(-c2cn(C)nn2)c1  Bromodomain-containing protein 4 (Homo sapiens, UniProt O60885, Y390A)    6.90

// switching to the query molecule
Q: Field: pIC50 (Bromodomain-containing protein 4 (Homo sapiens, UniProt O60885, Y390A)). Entry: Cn1cc(-c2cc(C(=O)NCC[C@H]3CNCCO3)cc(Cc3ccccc3)n2)nn1
A: 7.20

====

target: Bromodomain-containing protein 4 (Homo sapiens, UniProt O60885, Y97A); assay: Inhibition of 6His-Thr-BRD4 (1 to 477 residues) BD1 Y97A mutant (unknown origin) incubated for 30 mins by TR-FRET assay
pIC50: −log10 of the molar value.
Response key: YES means pIC50 >= 5; NO means pIC50 < 5.

Look over these answered cases.
>>> print(df.to_string())
                                        mol  label
0          Cc1nc(-c2ccccc2OCc2ccccc2)n[nH]1     NO
1  CCNC(=O)c1ccc(OCc2ncccn2)c(-c2cn(C)nn2)c1     NO

Q: Textbook exercise: given the entry Cc1nnc(-c2ccccc2OCc2ccccc2)o1 , state whether its pIC50 is greater than or equal to 5.
A: NO

Q: Textbook exercise: given the entry Cn1cc(-c2cc(C(=O)NCC3CCOCC3)cc(Cc3ccccc3)n2)nn1 , state whether its pIC50 is greater than or equal to 5.
A: NO

Q: Textbook exercise: given the entry C[C@H](Oc1ccc(C(N)=O)cc1-c1cn(C)nn1)c1ccccn1 , state whether its pIC50 is greater than or equal to 5.
A: YES

====

assay: Solubility of compound by CLND assay; type: physicochemical
endpoint: solubility kinetic

In the examples that follow, each entry is paired with its recorded solubility kinetic.
>>> print(df.to_string())
                                        mol       result
0  CCNC(=O)c1ccc(OCCc2ccccc2)c(-c2cn(C)nn2)c1     95 µg/mL
1  CNC(=O)c1cc(C(=O)NC2CC2)cn(Cc2ccccc2)c1=O  ≥ 154 µg/mL
2  CCNC(=O)c1ccc(OCc2ncccn2)c(-c2cn(C)nn2)c1  ≥ 103 µg/mL
3  C[C@H](Oc1ccc(C(=O)NC2CCOCC2)cc1-c1cn(C)nn1)c1ccccn1  ≥ 194 µg/mL
4  Cn1cc(-c2cc(C(=O)NCCC[C@@]3(F)CCCNC3)cc(Cc3ccccc3)n2)nn1  ≥ 172 µg/mL

Q: Could you tell me which solubility kinetic is on file for Cc1nnc(-c2ccccc2OCc2ccccc2)o1 ?
A: ≥ 252 µg/mL

Q: Could you tell me which solubility kinetic is on file for C[C@H](Oc1ccc(C(=O)N[C@H]2CC[C@H](O)CC2)cc1-c1cn(C)nn1)c1ccccn1 ?
A: ≥ 188 µg/mL

Q: Could you tell me which solubility kinetic is on file for Cn1cc(-c2cc(C(=O)NCC3CCOCC3)cc(Cc3ccccc3)n2)nn1 ?
A: ≥ 142 µg/mL

Q: Could you tell me which solubility kinetic is on file for Cn1cc(-c2cc(C(=O)NCC[C@H]3CNCCO3)cc(Cc3ccccc3)n2)nn1 ?
A: ≥ 189 µg/mL

Q: Could you tell me which solubility kinetic is on file for CCNC(=O)c1ccc(OCc2ccccc2OC)c(-c2cn(C)nn2)c1 ?
A: ≥ 162 µg/mL

Q: Could you tell me which solubility kinetic is on file for CCNC(=O)c1cc(Cc2ccccc2F)nc(-c2cn(C)nn2)c1 ?
A: 66 µg/mL

Q: Could you tell me which solubility kinetic is on file for C[C@H](Oc1ccc(C(=O)NCC[C@H]2CNCCO2)cc1-c1cn(C)nn1)c1ccccn1 ?
A: ≥ 182 µg/mL

Q: Could you tell me which solubility kinetic is on file for C[C@H](Oc1ccc(C(=O)NCCC[C@@]2(F)CCCNC2)cc1-c1cn(C)nn1)c1ccccn1 ?
A: ≥ 193 µg/mL

Q: Could you tell me which solubility kinetic is on file for CCNC(=O)c1cc(Cc2cccc(OC)c2)nc(-c2cn(C)nn2)c1 ?
A: ≥ 45 µg/mL

Q: Could you tell me which solubility kinetic is on file for Cn1cc(-c2cc(C(=O)NCC[C@@H]3CNCCO3)cc(Cc3ccccc3)n2)nn1 ?
A: ≥ 138 µg/mL

Q: Could you tell me which solubility kinetic is on file for C[C@H](Oc1ccc(C(=O)NCC2CCOCC2)cc1-c1cn(C)nn1)c1ccccn1 ?
A: ≥ 192 µg/mL

Q: Could you tell me which solubility kinetic is on file for CCNC(=O)c1cc(Cc2ccccc2)nc(C(=O)NC)c1 ?
A: ≥ 102 µg/mL

Q: Could you tell me which solubility kinetic is on file for CCNC(=O)c1cc(Cc2cccc3[nH]ccc23)nc(-c2cn(C)nn2)c1 ?
A: ≥ 148 µg/mL

Q: Could you tell me which solubility kinetic is on file for C[C@H](Oc1ccc(C(=O)N[C@H]2[C@@H]3COC[C@@H]32)cc1-c1cn(C)nn1)c1ccccn1 ?
A: ≥ 169 µg/mL
